- System: NOMO1
- METHOD_DESCRIPTION: cell viability relative to DMSO control; higher = less cytotoxic
- TEST_PARAMETERS: RPMI 5 mM glucose + 10% dialyzed FBS; 48 h; 0.00702 µM
We begin with a simple list: items and their reported cell viability.
Output spec: scalar in %, unitless text.

Some compounds with known cell viability results, for comparison:
| COMPOUND | SYSTEM_TESTED | cell viability (%) |
| --- | --- | --- |
| COCC(=O)NC/C=C/c1ccc2ncnc(Nc3ccc(Oc4ccc(C)nc4)c(C)c3)c2c1 | NOMO1 | 93.9 |
| COc1cc2cc(c1Cl)N(C)C(=O)C[C@H](OC(=O)C(C)C)[C@]1(C)O[C@@H]1[C@H](C)[C@@H]1C[C@@](O)(NC(=O)O1)[C@H](OC)/C=C/C=C(\C)C2 | NOMO1 | 36.2 |
| CC1(C)CCC(C)(C)c2cc(NC(=O)c3ccc(C(=O)O)cc3)ccc21 | NOMO1 | 91.3 |

What cell viability appears in the records for this compound with NOMO1? `C/C1=C/C(=C(/CNC(=O)C2=CC(=CC3=C2C=N[N]3C4CCCC4)C5=CC=C(CN6CCOCC6)C=C5)C(=O)N1)C` 128

Another compound to look at: `CN1CCN(CC1)C2=CC3=C([NH]C(=N3)C/4=C(\N)C5=C(F)C=CC=C5NC4=O)C=C2` 115

Next: `NC(=O)N1CCC(CC(=O)N2CCC([C@H]3c4ncc(Br)cc4CCc4cc(Cl)cc(Br)c43)CC2)CC1` 123

What do you have for `Cc1cccc(-c2[nH]c(C(C)(C)C)nc2-c2ccc3nccnc3c2)n1` ? 122

Moving on to `CC(C)[C@]12O[C@H]1[C@@H]3O[C@@]34[C@@]5(C)CC\C6=C(COC6=O)/[C@@H]5C[C@@H]7O[C@]47[C@@H]2O` 5.75

Next compound: `CC[C@H](CO)Nc1nc(NCc2ccccc2)c2ncn(C(C)C)c2n1` 85.2

Same question for `Cc1cc(/C=c2/sc3nc4ccccc4n3c2=O)c(C)n1-c1ccccc1` please. 115

`CCn1c(C(=O)N(C2CC2)C2CC2)cc2c3c(ncn3C)c(Nc3cc(C)n(C)n3)nc21` ? 105

Thanks! And `c1ccc2c(CN3CCNCC3)cccc2c1` ? 106

Data provenance: the supplement of paper PMC11451515
